# measurementParameters: buffer; pH 7.4; 200.0 µM
Threshold check on solubility kinetic: at or above 10 µg/mL gives 1 (yes), strictly below gives 0 (no).

{"compound": "O=C1NC(c2ccc(Cl)cc2)=COc2ccccc21", "label": "0 (no)"}
{"compound": "O=C(NCc1cccnc1)Nc1cccc(Cl)c1Cl", "label": "1 (yes)"}
{"compound": "CC(C)N(C(=O)Nc1ccc2nsnc2c1)C(C)C", "label": "1 (yes)"}
{"compound": "Cc1cc(C)c(N2C(=O)CCCC2=O)c(Cl)c1", "label": "1 (yes)"}
{"compound": "O=Cc1ccc(-c2ccc([N+](=O)[O-])cc2Cl)o1", "label": "0 (no)"}
{"compound": "O=C(CSc1ncccn1)NCc1ccc2c(c1)OCO2", "label": "1 (yes)"}
{"compound": "O=C(/C=C/c1ccccc1)Nc1cc(NC(=O)/C=C/c2ccccc2)cc(C(=O)O)c1", "label": "1 (yes)"}
{"compound": "COc1ccc(-n2ccc(=O)c(C(=O)O)n2)c(OC)c1", "label": "1 (yes)"}
{"compound": "CCOC(=O)c1sc(Nc2ccc(F)cc2)nc1C", "label": "0 (no)"}
{"compound": "Cc1ccc(-c2[nH]c(=S)[nH]c(=O)c2C#N)cc1", "label": "1 (yes)"}
{"compound": "COc1cccc(C(=O)OCC(=O)c2[nH]c(C)c(C(C)=O)c2C)c1", "label": "0 (no)"}
{"compound": "CCOC(=O)N1CCN(C(=S)NC(=O)C2CCCC2)CC1", "label": "1 (yes)"}
{"compound": "O=C(CNC(=O)c1ccccc1Cl)c1ccccc1", "label": "1 (yes)"}
{"compound": "Cn1c(SCC(=O)NC2CC2)nnc1-c1ccccc1", "label": "1 (yes)"}
{"compound": "O=S(=O)(Nc1ccccc1O)c1ccc(Cl)nc1", "label": "1 (yes)"}
{"compound": "CCOc1ccc(C(=O)NCCN2CCOCC2)cc1", "label": "1 (yes)"}
{"compound": "CC(C)CCN1C(=O)c2ccc(C(=O)OCC(=O)N(CC(C)C)C3CCS(=O)(=O)C3)cc2C1=O (centres undefined)", "label": "1 (yes)"}
{"compound": "O=C(Nc1ccncc1)c1sc2ccccc2c1Cl", "label": "0 (no)"}
{"compound": "COc1cc(C)c(NC(=O)c2cccc(S(=O)(=O)N3CCCC3)c2)cc1OC", "label": "1 (yes)"}
{"compound": "COc1ccc(NC(=O)c2ccc(S(=O)(=O)N3CC(C)OC(C)C3)cc2)cc1 (centres undefined)", "label": "0 (no)"}
{"compound": "CN(C)C(CNC(=O)c1coc2ccccc2c1=O)c1ccccc1 (centres undefined)", "label": "1 (yes)"}
{"compound": "O=C(CNC(=O)c1ccc2ccccc2c1)NCc1ccccc1F", "label": "0 (no)"}

The origin of these recorded values is PubChem BioAssay AID1996.
